- Target or test system: T1, hPRLR.mmh (soluble monomeric human PRLR) (human)
- T1 construct: called soluble monomeric PRLR protein
- T1 chain: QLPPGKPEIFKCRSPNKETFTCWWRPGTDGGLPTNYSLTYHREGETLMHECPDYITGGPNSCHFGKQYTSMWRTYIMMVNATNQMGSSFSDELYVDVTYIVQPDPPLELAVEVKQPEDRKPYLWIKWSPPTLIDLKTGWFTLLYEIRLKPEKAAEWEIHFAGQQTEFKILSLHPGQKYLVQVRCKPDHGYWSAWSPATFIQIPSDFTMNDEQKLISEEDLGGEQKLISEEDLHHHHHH
- Measurement notes: SPR Biacore, 25 C, mAb capture
Assay metric: koff (s⁻¹)

binder="H1H6800P (antibody, human IgG1, V domains shown, Human IgG1 Fc (H1H)) VH: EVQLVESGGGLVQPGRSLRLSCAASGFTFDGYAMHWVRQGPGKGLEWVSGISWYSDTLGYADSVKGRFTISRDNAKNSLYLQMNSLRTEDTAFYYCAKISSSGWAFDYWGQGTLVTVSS VL: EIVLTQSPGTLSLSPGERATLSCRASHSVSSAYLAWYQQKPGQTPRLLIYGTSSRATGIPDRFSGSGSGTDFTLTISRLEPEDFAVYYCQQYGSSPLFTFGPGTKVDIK" measurement_units=s⁻¹ endpoint_value=0.000409
binder="H1H6959N2 (antibody, human IgG1, V domains shown, Tested with human IgG1 Fc (H1H); also called H2M6959N2) VH: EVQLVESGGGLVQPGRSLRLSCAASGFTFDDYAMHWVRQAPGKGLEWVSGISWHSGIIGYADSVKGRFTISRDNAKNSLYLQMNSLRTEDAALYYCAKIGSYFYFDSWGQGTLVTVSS VL: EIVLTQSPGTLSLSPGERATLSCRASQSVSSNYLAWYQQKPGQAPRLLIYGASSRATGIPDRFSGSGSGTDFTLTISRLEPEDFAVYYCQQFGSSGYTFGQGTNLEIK" measurement_units=s⁻¹ endpoint_value=0.036
binder="H1H6966N (antibody, human IgG1, V domains shown, Tested with human IgG1 Fc (H1H); also called H2M6966N) VH: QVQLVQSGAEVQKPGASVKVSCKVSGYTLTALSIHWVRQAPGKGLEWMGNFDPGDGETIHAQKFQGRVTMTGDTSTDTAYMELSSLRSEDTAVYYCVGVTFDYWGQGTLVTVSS VL: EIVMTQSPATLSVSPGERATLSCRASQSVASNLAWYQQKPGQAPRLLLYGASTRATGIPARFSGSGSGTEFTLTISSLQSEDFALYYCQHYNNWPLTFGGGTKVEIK" measurement_units=s⁻¹ endpoint_value=0.000257
